The reported measurements were obtained from paper PMC5290001.

- method: Veliparib plasma pharmacokinetics
- Type: in vivo, human
- testConditions: human, plasma, oral, t1/2, veliparib 120 mg in combination with temozolomide 200 mg/m^2/day (day 8)
outcomeMeasure: half-life (h)
Expressed in h, but write only the number.

Input: Look up half-life: `C[C@]1(c2nc3c(C(N)=O)cccc3[nH]2)CCCN1`
Output: 9.1

* * *

- method: Veliparib plasma pharmacokinetics
- Format: in vivo, human
- testConditions: human, plasma, oral, t1/2, veliparib 200 mg in combination with temozolomide 200 mg/m^2/day (day 8)
outcomeMeasure: half-life (h)
Expressed in h, but write only the number.

Input: Look up half-life: `C[C@]1(c2nc3c(C(N)=O)cccc3[nH]2)CCCN1`
Output: 3.6

* * *

- method: Temozolomide plasma pharmacokinetics
- Type: in vivo, human
- testConditions: human, plasma, oral, tmax (median), temozolomide 200 mg/m^2/day in combination with veliparib 20–200 mg (day 8)
outcomeMeasure: Tmax (h)
Expressed in h, but write only the number.

Input: Look up Tmax: Cn1nnc2c(C(N)=O)ncn2c1=O [Temozolomide, temozolomide]
Output: 1
